Attribute: pEC50
# assay-target: T1, cynomolgus OX40L expressed on CHO cells (cynomolgus monkey, UniProt P23510 1-183 (human entry))
# T1 construct: also called cynoOX40L; CHO-cynoOX40L
# T1 chain: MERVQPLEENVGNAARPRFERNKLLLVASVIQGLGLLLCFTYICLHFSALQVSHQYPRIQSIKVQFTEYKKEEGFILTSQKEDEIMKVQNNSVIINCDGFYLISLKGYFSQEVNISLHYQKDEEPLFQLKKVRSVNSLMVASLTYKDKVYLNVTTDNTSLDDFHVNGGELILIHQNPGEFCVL
# method: FACS binding to CHO cells, anti-c-myc detection
The quantity pEC50 is defined as the negative base-10 logarithm of the molar concentration.

binder	pEC50
OX40L01E10 (VHH, monovalent Nanobody from E. coli; not shown: C-terminal c-myc and His6 tag) VHH: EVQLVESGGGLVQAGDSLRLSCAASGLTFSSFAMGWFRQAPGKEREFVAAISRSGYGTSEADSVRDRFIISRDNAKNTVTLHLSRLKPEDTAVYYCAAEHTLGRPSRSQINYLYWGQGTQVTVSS	8.26

Short answer for OX40L19A07 (VHH, monovalent Nanobody from E. coli; not shown: C-terminal c-myc and His6 tag) VHH: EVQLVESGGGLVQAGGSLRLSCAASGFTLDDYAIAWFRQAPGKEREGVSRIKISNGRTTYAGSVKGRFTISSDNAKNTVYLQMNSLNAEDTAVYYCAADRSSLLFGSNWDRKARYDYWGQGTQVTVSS : pEC50 was 8.27
